src = paper PMC7180484

# Experimental system: BuChE (Equus caballus)
# Construct: butyrylcholinesterase from equine serum
# Sequence (P81908 whole entry): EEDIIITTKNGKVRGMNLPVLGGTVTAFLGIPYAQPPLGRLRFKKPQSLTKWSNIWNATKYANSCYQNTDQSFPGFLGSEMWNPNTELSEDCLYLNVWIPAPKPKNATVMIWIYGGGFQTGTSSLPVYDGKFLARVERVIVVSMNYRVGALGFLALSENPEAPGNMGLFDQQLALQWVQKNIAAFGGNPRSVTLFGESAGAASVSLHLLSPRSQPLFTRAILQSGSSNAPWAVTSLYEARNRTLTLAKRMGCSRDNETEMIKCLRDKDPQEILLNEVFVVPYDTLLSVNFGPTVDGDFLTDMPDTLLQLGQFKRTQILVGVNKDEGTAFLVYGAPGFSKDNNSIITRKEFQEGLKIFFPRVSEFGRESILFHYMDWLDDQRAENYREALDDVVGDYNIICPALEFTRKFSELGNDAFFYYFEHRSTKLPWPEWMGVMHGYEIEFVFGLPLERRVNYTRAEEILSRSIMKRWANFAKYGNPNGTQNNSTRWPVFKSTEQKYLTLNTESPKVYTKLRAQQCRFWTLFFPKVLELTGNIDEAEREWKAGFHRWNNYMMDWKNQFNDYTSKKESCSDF
# Assay procedure: biochemical
# Applied conditions: mean ± SD, three replicate determinations
pIC50: −log10 of the molar value.
Measurement type: pIC50

• COC(=O)[C@H]1[C@H]2C[C@@H]3c4[nH]c5cc(OC)ccc5c4CCN3C[C@H]2C[C@@H](OC(=O)c2cc(OC)c(OC)c(OC)c2)[C@@H]1OC [Reserpine] = 5.55
• COC(=O)C1=CO[C@@H](C)[C@H]2CN3CCc4c([nH]c5ccccc45)[C@@H]3C[C@H]12 [Ajmalicine] = 5.26
